Record form. Attribute: Kd. Fill in for each entry.
assay target: RSV fusion glycoprotein (RSV-F) (respiratory syncytial virus (strain not stated))
test name: SPR; sensors loaded with RSV-F, mAb in solution (Experiment 2)
Just the number please, in nM, no unit attached.

Give the measured Kd for MPK169-v2 (antibody, V domains shown) VH: EVQLVQSGAEVKKPGESLTISCQTSGYSFINYWIGWVRQMPGKGLEWMGVIYPFDSDTEYSPSFRGHVTISADKSINTAYLQWNSLGASDTAMYYCARFTFGIALVSGDVNGEGHAFDVWGRGTLVTVSS VL: EIVLTQSPPTLSVSPGQRATLSCRASQSVADKLAWYQQRPGQAPRLLIYGASSRATGVPARFSGSGSETEFTLTITSLQSEDFALYYCHQYNNWPHAFGQGTRLVIK
0.62

Please give measured Kd of the following entry: MPK191 (antibody, V domains shown) VH: EVQLVQSGAEVKKPGESLKISCKGSGYSFINYWIGWVRQMPGKGLEWMGIIYPFDSDTKYSPSFQGHVTISADKSINTAYVQWSGLKASDTAMYYCARFTFGIAVVAGDVTGEGHAFDVWGQGTMVTVSS VL: EIVMTQSPATLSVSPGDRATLSCRASQSVAGNLAWYQQRPGQTPRLLIYGASTRASGVPARFSGSGSETEFTLTISSLQSEDFAVYYCQQYDNWPHAFGQGTRLDIK
0.029

Item MPK177 (antibody, V domains shown) VH: EVQLVQSGAEVKKPGESLKISCQVSGYSFMNYWVGWVRQMPGKGLEWMGIIYPFDSDTIYSPSFQGHVTISADTSITTAYLHWSSLKASDTATYYCARFTFGIAVVADGLSGDGEAFDIWGQGTVVTVSS VL: DIVMTQTPATLSVSPGERATLSCRASQSVAGKLAWYQQRPGQTPRLLIYGASTRATGVPARFSGSGSETEFTLTISSLQSEDFAVYYCQQYSSWPHAFGQGTRLDIK : provide Kd
0.001
